Test system: A. baumannii SR27323
Test: MIC, CLSI broth microdilution, Test Example 1
Assay type: cell-based
Condition description: Acinetobacter baumannii, SR27323; OXA-23, OXA-58 carbapenemase producing strain; cation-adjusted Mueller Hinton broth containing human apo-transferrin; 5×10^5 cfu/mL; read-out: Minimum Inhibitory Concentration (MIC) A. baumannii SR27323

{"Molecule": "CC(C)(O/N=C(\\C(=O)N[C@@H]1C(=O)N2C(c3nnn[n-]3)=C(C[N+]34CCC(CNC(=O)c5cc(=O)c(O)cn5O)(CC3)CC4)CS[C@H]12)c1csc(N)n1)C(=O)[O-].[Na+]", "MIC": "0.125 µg/mL"}
{"Molecule": "CC(C)(O/N=C(\\C(=O)N[C@@H]1C(=O)N2C(c3nnn[n-]3)=C(C[N+]3(CCNC(=O)c4ccc(O)c(O)c4Cl)CCCC3)CS[C@H]12)c1nc(N)sc1Cl)C(=O)[O-].[Na+]", "MIC": "0.5 µg/mL"}
{"Molecule": "Nc1nc(/C(=N/O[C@@H](CC(=O)[O-])C(=O)[O-])C(=O)N[C@@H]2C(=O)N3C(c4nnn[n-]4)=C(C[N+]45CCC[C@H]4CN(C(=O)c4cc(O)c(O)c(Cl)c4)CC5)CS[C@H]23)cs1.[Na+].[Na+] (stereo partly shown)", "MIC": "0.5 µg/mL"}
{"Molecule": "CC(C)(O/N=C(\\C(=O)N[C@@H]1C(=O)N2C(c3nnn[n-]3)=C(C[N+]3(CCNC(=O)c4cc(O)c(O)cc4Cl)CCCC3)CS[C@H]12)c1csc(N)n1)C(=O)[O-].[Na+]", "MIC": "1 µg/mL"}
{"Molecule": "CC(C)(O/N=C(\\C(=O)N[C@@H]1C(=O)N2C(c3nnn[n-]3)=C(C[N+]34CCC(CNC(=O)c5ccc(O)c(O)c5Cl)(CC3)CC4)CS[C@H]12)c1csc(N)n1)C(=O)[O-].[Na+]", "MIC": "0.5 µg/mL"}
{"Molecule": "CC(C)(O/N=C(\\C(=O)N[C@@H]1C(=O)N2C(c3nn[n-]n3)=C(C[N+]3(C)CCC(NC(=O)c4ccc(O)c(O)c4Cl)CC3)CS[C@H]12)c1csc(N)n1)C(=O)[O-].[Na+] (stereo partly shown)", "MIC": "0.25 µg/mL"}
{"Molecule": "CC(C)(O/N=C(\\C(=O)N[C@@H]1C(=O)N2C(c3nnn[n-]3)=C(C[N+]34CCC[C@H]3CN(C(=O)c3cc(O)c(O)c(F)c3)CC4)CS[C@H]12)c1csc(N)n1)C(=O)[O-].[Na+] (stereo partly shown)", "MIC": "0.125 µg/mL"}
{"Molecule": "CC(C)(O/N=C(\\C(=O)N[C@@H]1C(=O)N2C(c3nnn[n-]3)=C(C[N+]3(C)[C@@H]4CC[C@H]3C[C@@H](NC(=O)c3cc(O)c(O)c(F)c3)C4)CS[C@H]12)c1csc(N)n1)C(=O)[O-].[Na+] (stereo partly shown)", "MIC": "2 µg/mL"}
{"Molecule": "CC(C)(O/N=C(\\C(=O)N[C@@H]1C(=O)N2C(c3nnn[n-]3)=C(C[N+]34CCCC3(CNC(=O)c3ccc(O)c(O)c3Cl)CCC4)CS[C@H]12)c1cnc(N)s1)C(=O)[O-].[Na+] (stereo partly shown)", "MIC": "2 µg/mL"}
{"Molecule": "CC(C)(O/N=C(\\C(=O)N[C@@H]1C(=O)N2C(c3nnn[n-]3)=C(C[n+]3ccc4cc(O)c(O)cc4c3)CS[C@H]12)c1csc(N)n1)C(=O)[O-].[Na+]", "MIC": "0.125 µg/mL"}

---

We begin with a simple list: items and their reported MIC.
System: P. aeruginosa SR01332
Test: MIC, CLSI broth microdilution, Test Example 2
Assay type: cell-based
Condition description: Pseudomonas aeruginosa, SR01332; VIM-11 MBL producing strain (carbapenem resistance strain); cation-adjusted Iso-Sensitest broth containing human Apo-transferrin; 5×10^5 cfu/mL; read-out: Minimum Inhibitory Concentration (MIC) P. aeruginosa SR01332

{"Molecule": "CC(C)(O/N=C(\\C(=O)N[C@@H]1C(=O)N2C(c3nnn[nH]3)=C(C[n+]3cccc4c3CCCN4C(=O)c3ccc(O)c(O)c3Cl)CS[C@H]12)c1nsc(N)n1)C(=O)O.[Na+]", "MIC [µg/mL]": 2}
{"Molecule": "CC(C)(O/N=C(\\C(=O)N[C@@H]1C(=O)N2C(c3nnn[n-]3)=C(C[N+]3(CCNC(=O)c4ccc(O)c(O)c4Cl)CCCCC3)CS[C@H]12)c1csc(N)n1)C(=O)[O-].[Na+]", "MIC [µg/mL]": 2}
{"Molecule": "CC(C)(O/N=C(\\C(=O)N[C@@H]1C(=O)N2C(c3nnn[nH]3)=C(C[N+]3(CCNC(=O)c4ccc(O)c(O)c4F)CCCC3)CS[C@H]12)c1nc(N)sc1Cl)C(=O)[O-]", "MIC [µg/mL]": 4}
{"Molecule": "Nc1nc(/C(=N/O[C@@H](CC(=O)[O-])C(=O)[O-])C(=O)N[C@@H]2C(=O)N3C(c4nnn[n-]4)=C(C[N+]4(CCNC(=O)c5ccc(O)c(O)c5Cl)CCCCC4)CS[C@H]23)cs1.[Na+].[Na+]", "MIC [µg/mL]": 2}
{"Molecule": "CC(C)(O/N=C(\\C(=O)N[C@@H]1C(=O)N2C(c3nnn[n-]3)=C(C[N+]3(C)[C@@H]4CC[C@H]3CC(NC(=O)c3cc(O)c(O)c(F)c3)C4)CS[C@H]12)c1nc(N)sc1Cl)C(=O)[O-].[Na+] (stereo partly drawn)", "MIC [µg/mL]": 2}
{"Molecule": "Nc1nc(/C(=N/O[C@@H](CC(=O)O)C(=O)[O-])C(=O)N[C@@H]2C(=O)N3C(c4nnn[nH]4)=C(C[N@+]45CCC[C@H]4CN(C(=O)c4ccc(O)c(O)c4Cl)CC5)CS[C@H]23)c(Cl)s1", "MIC [µg/mL]": 4}
{"Molecule": "CC(C)(O/N=C(\\C(=O)N[C@@H]1C(=O)N2C(c3nnn[n-]3)=C(C[N+]3(CCNC(=O)c4cc(O)c(O)c(Cl)c4)CCCC3)CS[C@H]12)c1nc(N)sc1Cl)C(=O)[O-].[Na+]", "MIC [µg/mL]": 2}
{"Molecule": "Nc1nc(/C(=N/O[C@@H](CC(=O)O)C(=O)[O-])C(=O)N[C@@H]2C(=O)N3C(c4nnn[nH]4)=C(C[N+]4(CCNC(=O)c5ccc(O)c(O)c5F)CCCC4)CS[C@H]23)c(Cl)s1", "MIC [µg/mL]": 2}
{"Molecule": "CC(C)(O/N=C(\\C(=O)N[C@@H]1C(=O)N2C(c3nnn[n-]3)=C(C[n+]3ccc(CNC(=O)c4ccc(O)c(O)c4Cl)cc3)CS[C@H]12)c1nc(N)sc1Cl)C(=O)[O-].[Na+]", "MIC [µg/mL]": 1}

---

Tested on: K. pneumoniae ATCCBAA-1705
Test: MIC, CLSI broth microdilution, Test Example 1
Format: cell-based
Condition description: Klebsiella pneumoniae, ATCCBAA1705; KPC-2 carbapenemase producing strain; cation-adjusted Mueller Hinton broth containing human apo-transferrin; 5×10^5 cfu/mL; read-out: Minimum Inhibitory Concentration (MIC) K. pneumoniae ATCCBAA-1705
Measurement kind: MIC

{"Compound": "CC(C)(O/N=C(\\C(=O)N[C@@H]1C(=O)N2C(c3nnn[n-]3)=C(C[N+]3(C)[C@@H]4CC[C@H]3C[C@@H](NC(=O)c3ccc(O)c(O)c3Cl)C4)CS[C@H]12)c1csc(N)n1)C(=O)[O-].[Na+] (stereo partly drawn) [Compound I-2]", "Measurement kind": "MIC", "Result": "≤ 0.031 µg/mL"}
{"Compound": "Nc1nc(/C(=N/O[C@@H](CC(=O)[O-])C(=O)[O-])C(=O)N[C@@H]2C(=O)N3C(c4nnn[n-]4)=C(C[N+]4(CCNC(=O)c5ccc(O)c(O)c5Cl)CCCC4)CS[C@H]23)cs1.[Na+].[Na+] [Compound I-3]", "Measurement kind": "MIC", "Result": "≤ 0.031 µg/mL"}
{"Compound": "CC(C)(O/N=C(\\C(=O)N[C@@H]1C(=O)N2C(c3nnn[n-]3)=C(C[N+]3(CCNC(=O)c4ccc(O)c(O)c4Cl)CCCC3)CS[C@H]12)c1nc(N)sc1Cl)C(=O)[O-].[Na+] [Compound I-88]", "Measurement kind": "MIC", "Result": "0.063 µg/mL"}
{"Compound": "CC(C)(O/N=C(\\C(=O)N[C@@H]1C(=O)N2C(c3nnn[nH]3)=C(C[N+]3(CCNC(=O)c4cc(O)c(O)c(F)c4)CCCC3)CS[C@H]12)c1csc(N)n1)C(=O)[O-] [Compound I-56]", "Measurement kind": "MIC", "Result": "≤ 0.031 µg/mL"}
{"Compound": "CC(C)(O/N=C(\\C(=O)N[C@@H]1C(=O)N2C(c3nnn[n-]3)=C(C[n+]3ccc(-c4ccc(O)c(O)c4Cl)cc3)CS[C@H]12)c1csc(N)n1)C(=O)[O-].[Na+] [Compound I-79]", "Measurement kind": "MIC", "Result": "≤ 0.031 µg/mL"}
{"Compound": "CC(C)(O/N=C(\\C(=O)N[C@@H]1C(=O)N2C(C(=O)[O-])=C(C[N+]34CCC(CNC(=O)c5ccc(O)c(O)c5Cl)(CC3)CC4)CS[C@H]12)c1csc(N)n1)C(=O)[O-].[Na+] [Comparative Compound 1, reference compound]", "Measurement kind": "MIC", "Result": "0.125 µg/mL"}
